- test_method_notes: self-splicing fitness, log relative to wild type (ln ratio); higher = more splicing; Tetrahymena group I intron in knt gene, E. coli kanamycin selection, DiMSum; sequences stand for … in CUCUCU…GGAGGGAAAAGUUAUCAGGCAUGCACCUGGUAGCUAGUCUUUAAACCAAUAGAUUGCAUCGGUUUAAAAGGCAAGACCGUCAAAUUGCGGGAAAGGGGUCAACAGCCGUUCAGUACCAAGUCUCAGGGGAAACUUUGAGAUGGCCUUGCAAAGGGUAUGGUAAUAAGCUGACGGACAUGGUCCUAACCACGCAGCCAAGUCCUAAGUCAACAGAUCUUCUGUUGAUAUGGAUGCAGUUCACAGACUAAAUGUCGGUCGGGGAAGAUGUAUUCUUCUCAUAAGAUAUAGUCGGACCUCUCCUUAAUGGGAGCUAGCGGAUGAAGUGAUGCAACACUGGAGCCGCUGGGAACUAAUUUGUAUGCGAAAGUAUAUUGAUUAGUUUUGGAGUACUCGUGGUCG;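 also: selection with 25 µg/mL kanamycin versus none on LB agar overnight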
- measurement_context: 37 °C
measurement_type: self-splicing fitness (ln)
The answer should be a number; do not append a unit.

Answered cases to consult:
1. CAGGAGCAAUAUUACGUCUA = -1.68
2. GUUCAGCAAUAUUACGGGCC = -2.25
3. GAACAGCAAUAUUACGUCAG = -3.2
4. CUCUAGCAAUAUUACGAGUU = -3.55

Which value of self-splicing fitness (ln) has been reported for `UAGGAGCAAUAUUACGACUG` in the records?
0.363

Requested read-out: self-splicing fitness (ln). Entry: `AUCUAGCAAUAUUACGAGUG`
-1.32

Looking for the measured self-splicing fitness (ln) of `GCUAAGCAAUAUUACGAAUU` , can you help?
-0.0664

Quick one: self-splicing fitness (ln) for `UCUAAGCAAUAUUACGCACG` ?
-1.8

###

- test_method_notes: self-splicing fitness, log relative to wild type (ln ratio); higher = more splicing; Tetrahymena group I intron in knt gene, E. coli kanamycin selection, DiMSum; sequences stand for … in CUCUCU…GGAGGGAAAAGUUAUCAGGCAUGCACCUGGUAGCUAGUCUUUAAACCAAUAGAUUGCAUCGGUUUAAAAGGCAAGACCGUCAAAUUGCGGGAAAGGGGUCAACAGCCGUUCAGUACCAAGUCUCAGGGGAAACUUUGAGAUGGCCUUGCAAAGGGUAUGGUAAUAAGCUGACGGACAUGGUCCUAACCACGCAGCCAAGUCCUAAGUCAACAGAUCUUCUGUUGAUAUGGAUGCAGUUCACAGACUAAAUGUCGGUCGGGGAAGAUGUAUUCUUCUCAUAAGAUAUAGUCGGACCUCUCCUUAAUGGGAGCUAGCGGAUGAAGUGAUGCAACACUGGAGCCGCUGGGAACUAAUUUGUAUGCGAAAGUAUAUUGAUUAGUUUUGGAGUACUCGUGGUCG
- measurement_context: 30 °C
Could you label it YES if measured self-splicing fitness (ln) is -2 or higher, and NO otherwise?

Before answering, review these 6 worked examples.
1) AAGAAGCAAUAUUACGACUU = YES
2) ACAAAGCAAUAUUACGUGUG = YES
3) AACAAGCAAUAUUACGAUCU = YES
4) UUGUAGCAAUAUUACGGGGG = NO
5) AUUCAGCAAUAUUACGCUUC = NO
6) AUGUAGCAAUAUUACGGACC = YES

Switching to the query record.
// inclusive: self-splicing fitness (ln) at least -2? input: `AACAAGCAAUAUUACGUCGG`
NO
